These entries and their values trace back to paper PMC12136788.

Biological target: T1, UNK ZnF1-6 (called full-length) (human, UniProt Q9C0B0 30-357)
T1 sequence: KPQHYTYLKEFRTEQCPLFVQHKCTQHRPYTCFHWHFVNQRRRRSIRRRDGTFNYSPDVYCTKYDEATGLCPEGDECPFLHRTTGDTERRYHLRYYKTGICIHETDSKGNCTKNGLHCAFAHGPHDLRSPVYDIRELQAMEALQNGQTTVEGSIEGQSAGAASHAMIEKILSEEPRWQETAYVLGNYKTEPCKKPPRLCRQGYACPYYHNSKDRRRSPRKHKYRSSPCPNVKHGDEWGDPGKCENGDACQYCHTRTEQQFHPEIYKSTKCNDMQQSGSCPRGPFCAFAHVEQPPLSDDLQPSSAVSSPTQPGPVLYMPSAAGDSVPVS
Test: nsRBNS (natural sequence RNA bind-n-seq); RBNS binding buffer (assumed for nsRBNS): 25 mM Tris pH 7.5, 150 mM KCl, 3 mM MgCl2, 0.01% Triton X-100, 500 ug/ml BSA, 20 U/ml SUPERase-In, 4 C; UNK is unkempt and MSI1 is Musashi-1; names of the RNAs are library labels; protein concentration not given here; high values mean tight binding
Whole data set: some 5,800 sequences, median “enrichment r” near 0.68, cut for the highest 2% near 11. The list comes from a sample in which the highest values are over-represented; it also holds close analogues and randomly drawn sequences.

binder	unit.name	binding signal
chr4:186588032:186588133:-|3pUTR|ENSG00000083857|msi1|FALSE|unique (ssRNA) RNA: GGGAGUUCUACAGUCCGACGAUCUUUUUUUACUAUAACCAGGGUUUCAUUCUGUCUUUUUCCACUGAAGUGUGACAUUUUGUUAGUACAUUUCAGUGUAGUCAUUCAUUUCUAGCUGUACAUAGGAUGAAGGAGAGAUCAGAUCAACAGAGGAUUGAGCAUCA	enrichment R	1.31
chr3:98797553:98797658:-|3pUTR|ENSG00000057019|msi1|total|mutant (ssRNA) RNA: GGGAGUUCUACAGUCCGACGAUCAUUUCAUUCAUUGAAGAAUCAAUACAUAUUUUGUUUCAAAAUGUUUGAAACAAAAGACACCGAUGGCCGACUUUUAUUAAAACAUAUAUGGAUGUGGAAAGCACAUAUAUUAAUGCAGUCCAACAGAGGAUUGAGCAUCA	enrichment R	0.53
chr9:123379744:123379845:-|3pUTR|ENSG00000119522|msi1|total|mutant (ssRNA) RNA: GGGAGUUCUACAGUCCGACGAUCGUGUUUCAGCACCGAUUCCAGUUUCGCACCCUGGGCAGACCCCCAGGCCCCAUCCGGGACCGGGCAGAGGAGGUGCUGGCGGCCCCAGGGAAGGAGGGUGUGUACCCCAAGGCCCCCUGGCAACAGAGGAUUGAGCAUCA	enrichment R	0.59
